This collection of values is drawn from patent US12441768B2.

Target: β-catenin (Homo sapiens, UniProt P35222)
Sequence (P35222 whole entry): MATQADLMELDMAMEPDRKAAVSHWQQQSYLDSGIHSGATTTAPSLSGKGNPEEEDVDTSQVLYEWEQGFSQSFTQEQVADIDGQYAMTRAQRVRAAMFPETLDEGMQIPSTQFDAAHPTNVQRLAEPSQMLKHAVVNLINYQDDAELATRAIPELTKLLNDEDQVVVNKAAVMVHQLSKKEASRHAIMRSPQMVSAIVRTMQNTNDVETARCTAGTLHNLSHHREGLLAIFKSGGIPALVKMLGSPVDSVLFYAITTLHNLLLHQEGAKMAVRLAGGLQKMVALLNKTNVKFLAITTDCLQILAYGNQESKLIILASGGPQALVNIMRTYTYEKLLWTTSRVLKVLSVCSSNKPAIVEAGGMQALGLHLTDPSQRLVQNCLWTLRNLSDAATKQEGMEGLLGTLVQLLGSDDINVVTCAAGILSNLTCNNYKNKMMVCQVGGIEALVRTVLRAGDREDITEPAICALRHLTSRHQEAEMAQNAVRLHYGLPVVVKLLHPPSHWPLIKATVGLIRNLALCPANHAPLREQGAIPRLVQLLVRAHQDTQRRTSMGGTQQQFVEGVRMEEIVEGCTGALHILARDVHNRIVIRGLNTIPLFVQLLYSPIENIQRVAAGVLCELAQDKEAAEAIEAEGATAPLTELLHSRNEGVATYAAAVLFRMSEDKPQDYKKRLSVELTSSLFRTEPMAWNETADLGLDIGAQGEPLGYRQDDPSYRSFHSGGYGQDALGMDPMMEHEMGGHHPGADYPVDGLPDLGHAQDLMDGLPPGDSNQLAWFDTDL
Assay: KD50 measurement using competitive fluorescence polarization (FP) with labelled TCF4
Type: binding
Settings: fluorescence polarization, β-catenin
Description: Fluorescence polarization (FP) is another method used to analyze protein-ligand interactions. This methodology measures the change in fluorescence light emitted by a labelled compound free vs. conjugated to another compound in solution. Upon binding of the fluorescent molecule to a complex, polarization increases because of limited rotation of the fluorescent tracer. […] Data were analyzed and plotted in Microsoft Excel (Microsoft, Redmond, WA). […]
Where a SMILES comes first, the peptide text is derived from it.
Measured attribute: β-Cat FP Hill slope

1. CC[C@H](C)[C@H](NC(=O)[C@H](CC(C)C)NC(C)=O)C(=O)N[C@@H](CO)C(=O)N[C@@H](Cc1ccccc1)C(=O)N[C@@H](Cc1c[nH]c2ccccc12)C(=O)NCC(=O)O [compound 238] (Ac-LISFWG-OH): 0.7
2. CC(C)C[C@@H]1NC(=O)[C@H](Cc2ccccc2)NC(=O)[C@H](Cc2c[nH]c3ccccc23)NC(=O)[C@@H](N)CCCCNC(=O)CC[C@@H](C(=O)N[C@@H](CO)C(=O)N[C@@H](Cc2ccccc2)C(=O)N[C@@H](Cc2c[nH]c3ccccc23)C(=O)NCC(=O)O)NC1=O [compound 231] (HELM PEPTIDE1{K.W.F.L.E.S.F.W.G}$PEPTIDE1,PEPTIDE1,1:R3-5:R3$$$V2.0): 0.7
3. CC[C@H](C)[C@H](NC(=O)[C@H](CC(C)C)NC(=O)[C@@H](NC(=O)[C@H](Cc1c[nH]c2ccccc12)NC(=O)[C@H](CCSC)NC(=O)[C@@H](N)CCCCN)[C@@H](C)CC)C(=O)N[C@@H](CO)C(=O)N[C@@H](Cc1ccccc1)C(=O)N[C@@H](Cc1c[nH]c2ccccc12)C(=O)NCC(=O)O [compound 122] (H-KMWILISFWG-OH): 1.55
